- test description: yeast display, Sf9 membrane polyspecificity reagent, FACS + sequencing; frameworks hold sequencing errors
value kind: polyreactivity (PSR sort gate)

Some entries whose results are on file:
Input line: What value of polyreactivity (PSR sort gate) has been recorded for this entry: "QVQLVESGGGLVQAGGSLRLSCAASGRIFVPYAMGWYRQAPGKERELVAAISWNTGSTYYADSVKGRFTISRDNAKNTVYLQMNSLKPEDTAVYYCAAGSRVRYDGGYKINGYWGQGTQVTVSS"
Output line: high polyreactivity

Input line: Moving on to the next sequence: "QVQLVESGGGLVQAGGSLRLSCAASGSILLRYAMGWYRQAPGKERELVAAIRTIGASTYYADSVKGRFTISRDNAKNTVYLQMNSLKPEDTAVYYCNAYLAEVLPLGKGRLYDYWGQGTQVTVSS"
Output line: low polyreactivity

Input line: Check "QVQLVESGGGLVQAGGSLRLSCAASGSTFPVNAMGWYRQAPGKERELVAAITYRDGDTYYADSVKGRFTISRDNAKNTVYLEMHSLKPEDTAVYYCNADVGRHGKNRHMDYWGQGTQVTVSS" too.
Output line: low polyreactivity

Input line: Would you mind doing "QVQLVESGGGLVQAGGSLRLICAASVTTFPYYAMGWYRQAPGKERELVAAITSSGGSTYYADSVKGRFTISRDNAKNTVYLQMNSLIPEDTAVYYCAKGYGPYRQMNYWGQGTQVTVSS" as well?
Output line: low polyreactivity

Input line: Also "QDQHVESGGGLVQAGGSLRLSCDASGRTFRKNAMGSYRQARGKERELVAAISWSGDSTYYADSVKGRFTISRDNAKNTVYLQMNSLKPEDSAVYYCAADSRYHFYYWRQGTQVTVSS" , if possible.
Output line: high polyreactivity

Consider the record given below.
Input line: Please report the recorded polyreactivity (PSR sort gate) for "QVQLVESGGGLVQAGGSLRLSCAASGRTFQVYAMGWYRQAPGKERELVAAISSSGGITYYADSVKGRFTISRDNAKNTVYLQMNSLKPEDTAVYYCNTLYVSSNEYWGQGTQVTVSS" .
Output line: high polyreactivity

---

- test description: yeast display, Sf9 membrane polyspecificity reagent, FACS + sequencing; frameworks hold sequencing errors
value kind: polyreactivity (PSR sort gate)

Here are 4 sequences together with their reported answers.
Input line: I'd like to know its polyreactivity (PSR sort gate). The sequence in question is "QVQLVESGGGFVQAGGSLRLSCAASGSTFGYYVMGWYRQAPGKERELVAAISASGGSTYYADSVKGRFTISRDNAKHTVYLQMNSLKPEDTAVYYCAAGGYYVRYDYWGQGTQVTVSS"
Output line: high polyreactivity

Input line: Can you handle "QVQLVESGGGLVQAGGSLRLSCAASGSTFGPYDMGWYRQAPGQERDLVAAITRSGGRTYYADSVKGRFTFSRDNAKNTVYLQKNSLKPEDTAVYYCAAPPSEATSQRYKYNYWGQGTQVTVSS" next?
Output line: high polyreactivity

Input line: Would you kindly repeat that for "QVQLVQSGGGLVQAGGSLRLSCAASGTTFRIYAMGWYRQAPGKEREFVAAISDRGGRTYYADSVKGRFTISRDNAKNTVYLQMNSLKPEDTAVYYCAAVKLLSSAPGDDGKMNYWGQGTQVTVSS" ?
Output line: low polyreactivity

Input line: Next entry: "QVQLVESGGGLVQAGGSLRLSCAASGRTFLTNAMGWYRQAPGKERELVAAISGGGDDTFYADSVKGRFTISRDNAKNTVYLQMNSLKPEDTAVYYCAADWYTPGWRKEEEYWGQGTQVTVSS"
Output line: low polyreactivity

Okay, now this sequence:
Input line: Fill blank: measured polyreactivity (PSR sort gate) of the sequence "QVQLVESGGGLVQAGGSLRLSCAASGSIFWNNAMGWYIQAPGKEREWVAGISSAGSTNYADSVKGRFTISRDNAKNTVYLQMNSLKPEDTAVYYCAASYFRDYVWLRSNVRYYYWGQGTQVTVSS" is ____.
Output line: low polyreactivity
